Source listed as patent US20240317721A1.

Biological target: KRasG12C (M1-K169, biotinylated on the N-terminus) (Homo sapiens (Human), UniProt P01116, G12C)
Experiment: Covalent competition assay: scintillation proximity assay (SPA) quantifying covalent modification of KRASG12C
Conditions: competition with radiolabeled covalent probe (Compound B/Compound A), 2 hours incubation, 10 nM KRasG12C
Result type: pIC50
Answers are plain numbers, as −log10 of the molar value.

Examples with their reported pIC50 follow.
>  <Compound>
C=C(F)C(=O)N1CC2(CC(n3nc(N4CCN(C[C@@H]5COCCO5)C[C@]4(C)COC)c(-c4c(Cl)c(Cl)cc5[nH]ncc45)c3C)C2)C1 (single isomer, unassigned) [Example 184b]

>  <pIC50>
7.21

$$$$
>  <Compound>
C=CC(=O)N1C[C@]2(C[C@H](n3nc(N4CCN(C[C@@H]5COCCO5)C[C@]4(C)CC)c(-c4c(Cl)c(C)cc5[nH]ncc45)c3C)C2)[C@H]1C (single isomer, unassigned) [Example 200b]

>  <pIC50>
7.64

$$$$

Each compound below has a recorded value; state its pIC50.
1. C=CC(=O)N1CC2(CC(n3nc(N4CCN(C5CCOCC5)CC4(C)C)c(-c4c(Cl)c(C)cc5[nH]ncc45)c3C)C2)C1 (single isomer, unassigned) [Example 134b]
2. C=CC(=O)N1CC2(CC(n3nc(N4CCN(C5CCOCC5)C[C@@]4(CC)C(F)F)c(-c4c(Cl)c(C)cc5[nH]ncc45)c3C)C2)C1 (single isomer, unassigned) [Example 156b]
3. C=CC(=O)N1CC2(CC(n3nc(N4CC[C@@H](CN5CC6CC(C5)N6C(C)=O)CC4(C)C)c(-c4c(Cl)c(Cl)cc5[nH]ncc45)c3C)C2)C1 (single isomer, unassigned) [Example 301a]
4. C=CC(=O)N1CC2(CC(n3nc(N4CCN(C)CC45CCC5)c(-c4c(Cl)c(C)cc5[nH]ncc45)c3C)C2)C1 (single isomer, unassigned) [Example 55a]

Reply text:
[7.34, 8.10, 5.72, 4.61]

Each compound below has a recorded value; state its pIC50.
1. C=CC(=O)N1CC2(CC(n3nc(N4CCN(CC5(O)CC5)CC45CCC5)c(-c4c(Cl)c(C)cc5[nH]ncc45)c3C)C2)C1 (single isomer, unassigned) [Example 154b]
2. [2H]C1([2H])OC([2H])([2H])C([2H])([2H])N(C[C@@H]2CCN(c3nn(C4CC5(C4)CN(C(=O)C=C)C5)c(C)c3-c3c(Cl)c(Cl)cc4[nH]ncc34)C(C)(C)C2)C1([2H])[2H] (single isomer, unassigned) [Example 283a]
3. C=CC(=O)N1CC2(CC(n3nc(N4CCN(C5COC5)C[C@@]4(C)COC)c(-c4c(Cl)c(C)cc5[nH]ncc45)c3C)C2)C1 (single isomer, unassigned) [Example 148b]
4. C=CC(=O)N1CC2(CC(n3nc(N4CCN(C(C)=O)C[C@@H]4C(C)C)c(-c4c(Cl)c(C)cc5[nH]ncc45)c3C)C2)C1 (single isomer, unassigned) [Example 95b]

Reply text:
7.66
5.52
6.53
6.43
